targetOrTestSystem: Vascular endothelial growth factor receptor 2 (Mus musculus, UniProt P35918)
Sequence (P35918 whole entry): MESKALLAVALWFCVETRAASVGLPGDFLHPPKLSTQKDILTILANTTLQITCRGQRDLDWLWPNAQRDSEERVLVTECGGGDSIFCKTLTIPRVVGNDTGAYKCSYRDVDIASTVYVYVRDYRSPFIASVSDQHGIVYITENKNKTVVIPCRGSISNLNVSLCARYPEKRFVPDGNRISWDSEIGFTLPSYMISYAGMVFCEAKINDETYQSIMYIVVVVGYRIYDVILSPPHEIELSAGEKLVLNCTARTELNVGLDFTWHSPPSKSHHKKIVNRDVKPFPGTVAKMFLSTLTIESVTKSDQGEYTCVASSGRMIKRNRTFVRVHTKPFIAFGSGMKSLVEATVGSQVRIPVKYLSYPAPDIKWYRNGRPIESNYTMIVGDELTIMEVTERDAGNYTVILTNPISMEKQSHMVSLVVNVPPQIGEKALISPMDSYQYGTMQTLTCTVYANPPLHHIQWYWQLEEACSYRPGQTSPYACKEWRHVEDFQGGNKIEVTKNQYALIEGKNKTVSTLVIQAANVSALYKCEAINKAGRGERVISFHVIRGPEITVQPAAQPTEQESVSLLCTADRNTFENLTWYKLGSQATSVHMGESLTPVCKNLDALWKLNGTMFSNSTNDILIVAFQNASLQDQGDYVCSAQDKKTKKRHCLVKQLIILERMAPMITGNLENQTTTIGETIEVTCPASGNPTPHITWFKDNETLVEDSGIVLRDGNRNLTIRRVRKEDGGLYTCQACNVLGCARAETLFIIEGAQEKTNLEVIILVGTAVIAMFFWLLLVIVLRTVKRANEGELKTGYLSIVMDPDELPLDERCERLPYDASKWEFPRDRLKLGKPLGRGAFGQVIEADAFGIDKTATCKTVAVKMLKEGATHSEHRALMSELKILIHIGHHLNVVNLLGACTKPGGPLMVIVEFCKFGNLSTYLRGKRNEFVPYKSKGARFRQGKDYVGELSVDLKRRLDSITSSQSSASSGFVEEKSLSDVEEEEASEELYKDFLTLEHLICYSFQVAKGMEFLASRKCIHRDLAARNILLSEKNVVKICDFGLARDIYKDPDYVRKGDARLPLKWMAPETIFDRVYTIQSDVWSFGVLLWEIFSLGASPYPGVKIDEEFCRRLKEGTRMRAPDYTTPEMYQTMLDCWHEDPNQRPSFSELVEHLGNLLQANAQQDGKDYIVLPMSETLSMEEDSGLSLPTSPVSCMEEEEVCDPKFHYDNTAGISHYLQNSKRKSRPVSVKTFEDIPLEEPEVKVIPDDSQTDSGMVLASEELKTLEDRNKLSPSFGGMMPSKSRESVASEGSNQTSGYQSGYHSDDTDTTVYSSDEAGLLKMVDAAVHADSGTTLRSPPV
metric: IC50 (µM)
One number for each entry, in µM.

[
  {
    "smilesNotation": "COc1c(Br)cc(/C=C2\\C(=O)Nc3ccc(Cl)cc32)cc1C(C)(C)C",
    "targetOrTestSystem": "Vascular endothelial growth factor receptor 2 (Mus musculus, UniProt P35918)",
    "IC50 / µM": 1000
  },
  {
    "smilesNotation": "CC(C)c1cc(/C=C2/C(=O)Nc3ccccc32)cc(C(C)C)c1O",
    "targetOrTestSystem": "Vascular endothelial growth factor receptor 2 (Mus musculus, UniProt P35918)",
    "IC50 / µM": 8.51
  },
  {
    "smilesNotation": "CN(C)c1ccc(/C=C2/C(=O)Nc3cc(F)ccc32)cc1",
    "targetOrTestSystem": "Vascular endothelial growth factor receptor 2 (Mus musculus, UniProt P35918)",
    "IC50 / µM": 4.57
  }
]

Parameters: items (list). Returns: IC50 for each item.
1. O=CN1CCN(c2ccc(/C=C3\C(=O)Nc4ccccc43)cc2)CC1
2. O=C1Nc2ccccc2/C1=C\c1ccc(O)cc1
3. CN1C(=O)/C(=C/c2ccc(Br)cc2)c2ccccc21

Key:
5.13
2.69
1000

Parameters: items (list). Returns: IC50 for each item.
1. Cn1cc(Cl)c(/C=C2/C(=O)Nc3ccccc32)n1
2. O=C1Nc2ccccc2/C1=C\c1ccc(N2CCCC2)cc1
3. COc1ccc(/C=C2/C(=O)Nc3ccccc32)cc1C(C)(C)C
4. O=C1Nc2ccccc2/C1=C\c1n[nH]cc1Cl
5. CCc1c(/C=C2/C(=O)Nc3ccccc32)[nH]c(C)c1C

Key:
1000
3.02
1000
7.41
0.141

###

targetOrTestSystem: Human immunodeficiency virus type 1 protease (Human immunodeficiency virus 1)
pIC50: −log10 of the molar value.
Lab note: compare pIC50 against 9. Equal or greater, write label 1. Smaller, write label 0.

# count of solved cases: 5
[
  {
    "smilesNotation": "CC(C)(C)OC(=O)N[C@@H](Cc1ccccc1)[C@@H](O)C[C@@H](Cc1ccc(C(C)(C)C)cc1)C(=O)N[C@@H]1c2ccccc2C[C@H]1O",
    "groupLabel": "label 1"
  },
  {
    "smilesNotation": "CC(C)(C)OC(=O)N[C@@H](Cc1ccccc1)[C@@H](O)C[C@@H](Cc1ccccc1)C(=O)N[C@@H]1c2ccccc2OC[C@H]1O",
    "groupLabel": "label 1"
  },
  {
    "smilesNotation": "CC(C)(C)OC(=O)N[C@@H](Cc1ccccc1)[C@@H](O)C[C@@H](Cc1ccc(N)cc1)C(=O)N[C@@H]1c2ccccc2C[C@H]1O",
    "groupLabel": "label 1"
  },
  {
    "smilesNotation": "CC(C)(C)OC(=O)N[C@@H](Cc1ccccc1)[C@@H](O)C[C@@H](Cc1ccc(C(F)(F)F)cc1)C(=O)N[C@@H]1c2ccccc2C[C@H]1O",
    "groupLabel": "label 1"
  },
  {
    "smilesNotation": "CC(C)(C)OC(=O)N[C@@H](Cc1ccccc1)[C@@H](O)C[C@@H](Cc1ccccc1)C(=O)N[C@@H]1CCCC[C@H]1O",
    "groupLabel": "label 0"
  }
]

Exercise: Would you say CC(C)(C)OC(=O)N[C@@H](Cc1ccccc1)[C@@H](O)C[C@@H](Cc1ccc(O)cc1)C(=O)N[C@@H]1c2ccccc2C[C@H]1O shows pIC50 at minimum 9?
Key: label 1

Exercise: Would you say CC(C)(C)OC(=O)N[C@@H](Cc1ccccc1)[C@@H](O)CCC(=O)N[C@@H]1c2ccccc2C[C@H]1O shows pIC50 at minimum 9?
Key: label 0

Exercise: Would you say CC(C)(C)OC(=O)N[C@@H](Cc1ccccc1)[C@@H](O)C[C@@H](Cc1ccncc1)C(=O)N[C@@H]1c2ccccc2C[C@H]1O shows pIC50 at minimum 9?
Key: label 1

Exercise: Would you say CC(C)(C)OC(=O)N[C@@H](Cc1ccccc1)[C@@H](O)C[C@@H](CCCc1ccccc1)C(=O)N[C@@H]1c2ccccc2[C@@H](O)[C@H]1O shows pIC50 at minimum 9?
Key: label 1

Exercise: Would you say CC(C)(C)OC(=O)N[C@@H](Cc1ccccc1)[C@@H](O)C[C@@H](Cc1ccccc1)C(=O)N[C@H]1c2ccccc2OC[C@@H]1O shows pIC50 at minimum 9?
Key: label 0

Exercise: Would you say CC(C)(C)OC(=O)N[C@@H](Cc1ccccc1)[C@@H](O)C[C@@H](C/C=C/c1ccccc1)C(=O)N[C@@H]1c2ccccc2C[C@H]1O shows pIC50 at minimum 9?
Key: label 1

Exercise: Would you say CC(C)(C)OC(=O)N[C@@H](Cc1ccccc1)[C@@H](O)C[C@@H](CC(=O)c1ccccc1)C(=O)N[C@@H]1c2ccccc2C[C@H]1O shows pIC50 at minimum 9?
Key: label 0

Exercise: Would you say CC(C)(C)OC(=O)N[C@@H](Cc1ccccc1)[C@@H](O)C[C@@H](Cc1ccccc1)C(=O)N[C@@H]1c2ccccc2[C@@H](O)[C@H]1O shows pIC50 at minimum 9?
Key: label 1

Exercise: Would you say CC(C)(C)OC(=O)N[C@@H](Cc1ccccc1)[C@@H](O)C[C@@H](CSc1ccccc1)C(=O)N[C@@H]1c2ccccc2C[C@H]1O shows pIC50 at minimum 9?
Key: label 1

Exercise: Would you say Cc1ccc(C[C@H](C[C@H](O)[C@H](Cc2ccccc2)NC(=O)OC(C)(C)C)C(=O)N[C@@H]2c3ccccc3C[C@H]2O)cc1 shows pIC50 at minimum 9?
Key: label 1

Exercise: Would you say CC(C)(C)OC(=O)N[C@@H](Cc1ccccc1)[C@@H](O)C[C@@H](Cc1ccccc1)C(=O)N[C@@H]1c2ccccc2C[C@H]1O shows pIC50 at minimum 9?
Key: label 1

Exercise: Would you say C=CC[C@H](C[C@H](O)[C@H](Cc1ccccc1)NC(=O)OC(C)(C)C)C(=O)N[C@@H]1c2ccccc2C[C@H]1O shows pIC50 at minimum 9?
Key: label 0

Exercise: Would you say COC(=O)[C@@H]1Cc2ccccc2[C@H]1NC(=O)[C@H](Cc1ccccc1)C[C@H](O)[C@H](Cc1ccccc1)NC(=O)OC(C)(C)C shows pIC50 at minimum 9?
Key: label 0

Exercise: Would you say CC(C)(C)OC(=O)N[C@@H](Cc1ccccc1)[C@@H](O)C[C@@](C)(Cc1ccccc1)C(=O)N[C@@H]1c2ccccc2C[C@H]1O shows pIC50 at minimum 9?
Key: label 0

Exercise: Would you say CC(C)(C)OC(=O)N[C@@H](Cc1ccccc1)[C@@H](O)C[C@@H](Cc1ccc([N+](=O)[O-])cc1)C(=O)N[C@@H]1c2ccccc2C[C@H]1O shows pIC50 at minimum 9?
Key: label 1

Exercise: Would you say CC(C)(C)OC(=O)N[C@@H](Cc1ccccc1)[C@@H](O)C[C@@H](Cc1ccccc1)C(=O)N[C@H]1CCc2ccccc21 shows pIC50 at minimum 9?
Key: label 0

Exercise: Would you say CC(C)(C)OC(=O)N[C@@H](Cc1ccccc1)[C@@H](O)C[C@@H](Cc1ccccc1)C(=O)N[C@@H]1C=CC[C@H]1O shows pIC50 at minimum 9?
Key: label 0
